# OD450 listing for each entry below
# study.system: T1, human MSLN-R3-his protein (human, UniProt Q13421 487-598)
# T1 construct: it is put last here; also called human MSLN-R3 protein; hMSLN-R3-his; not shown: His tag
# T1 sequence (Q13421 495-606): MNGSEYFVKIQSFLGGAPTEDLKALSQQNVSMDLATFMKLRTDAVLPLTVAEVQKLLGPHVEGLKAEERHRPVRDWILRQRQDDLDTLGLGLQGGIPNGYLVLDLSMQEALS
# measurement.description: ELISA on coated antigen, antibody 0.2 nM
assay.metric: OD450 (OD)

binder="S009-F7.26.15 (antibody, human IgG1, kappa, V domains shown, Human-murine chimeric antibody, human IgG1 heavy and kappa light constant regions) VH: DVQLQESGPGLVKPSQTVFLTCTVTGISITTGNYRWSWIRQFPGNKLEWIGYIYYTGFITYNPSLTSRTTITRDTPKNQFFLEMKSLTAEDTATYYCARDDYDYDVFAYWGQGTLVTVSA VL: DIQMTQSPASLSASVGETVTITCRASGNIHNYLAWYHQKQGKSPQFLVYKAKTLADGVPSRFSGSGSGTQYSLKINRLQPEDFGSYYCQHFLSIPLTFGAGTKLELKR" numeric_value=2.45
binder="S009-F7.12.13 (antibody, human IgG1, kappa, V domains shown, Human-murine chimeric antibody, human IgG1 heavy and kappa light constant regions) VH: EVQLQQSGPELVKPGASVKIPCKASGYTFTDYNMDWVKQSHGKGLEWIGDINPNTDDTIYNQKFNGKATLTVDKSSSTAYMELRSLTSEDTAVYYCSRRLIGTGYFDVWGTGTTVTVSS VL: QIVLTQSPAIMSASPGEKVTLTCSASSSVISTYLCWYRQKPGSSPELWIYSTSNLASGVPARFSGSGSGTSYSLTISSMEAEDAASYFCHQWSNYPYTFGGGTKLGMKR" numeric_value=1.67
binder="S009-F7.69.8 (antibody, human IgG1, kappa, V domains shown, Human-murine chimeric antibody, human IgG1 heavy and kappa light constant regions) VH: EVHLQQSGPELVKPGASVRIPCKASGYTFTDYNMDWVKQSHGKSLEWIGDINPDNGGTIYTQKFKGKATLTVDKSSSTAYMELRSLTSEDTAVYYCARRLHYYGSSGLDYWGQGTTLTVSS VL: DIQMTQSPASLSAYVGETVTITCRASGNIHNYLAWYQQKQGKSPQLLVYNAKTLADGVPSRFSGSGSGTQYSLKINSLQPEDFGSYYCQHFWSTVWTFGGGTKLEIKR" numeric_value=1.96
binder="S009-F7.11.11 (antibody, human IgG1, kappa, V domains shown, Human-murine chimeric antibody, human IgG1 heavy and kappa light constant regions) VH: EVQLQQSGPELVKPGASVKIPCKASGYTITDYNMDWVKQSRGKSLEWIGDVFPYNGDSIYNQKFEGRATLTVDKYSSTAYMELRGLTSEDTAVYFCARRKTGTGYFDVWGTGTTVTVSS VL: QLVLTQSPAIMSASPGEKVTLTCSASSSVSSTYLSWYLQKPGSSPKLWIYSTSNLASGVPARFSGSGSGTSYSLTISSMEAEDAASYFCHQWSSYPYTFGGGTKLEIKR" numeric_value=1.37
binder="S009-F7.23.19 (antibody, human IgG1, kappa, V domains shown, Human-murine chimeric antibody, human IgG1 heavy and kappa light constant regions) VH: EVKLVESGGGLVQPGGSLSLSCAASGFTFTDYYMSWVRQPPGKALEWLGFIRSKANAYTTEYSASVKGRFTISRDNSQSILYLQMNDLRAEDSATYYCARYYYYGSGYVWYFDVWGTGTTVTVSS VL: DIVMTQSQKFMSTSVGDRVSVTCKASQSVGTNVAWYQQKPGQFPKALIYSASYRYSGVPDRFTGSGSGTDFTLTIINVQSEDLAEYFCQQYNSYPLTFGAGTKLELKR" numeric_value=1.9
